Test system: mNG-SARS-CoV-2
test-method-notes: microbe, parasite or virus in culture
Format: cell-based
condition: Severe acute respiratory syndrome coronavirus 2, Huh-7.5.1, read-out: EC50 (nucleocapsid staining)
observed-property: EC50 (nM)
Give the value in nM but do not write nM after it.

Look up EC50: `CCC(CC)COC(=O)[C@H](C)N[P@](=O)(OC[C@H]1O[C@@](C#N)(c2ccc3c(N)ncnn23)[C@H](O)[C@@H]1O)Oc1ccccc1`
7.6

---

Known EC50 of a selection of compounds
Tested on: SARS-CoV-2 Omicron BA.1
test-method-notes: dose-response against SARS-CoV-2 Omicron BA.1 in Calu-3 cells
Assay type: cell-based
condition: Severe acute respiratory syndrome coronavirus 2, Calu-3, read-out: BA.1 (EC50) dsRNA, Calu-3, dsRNA staining
Provide the reading as a plain figure in nM.

Please review the entries below; each comes with its answer.
chemical-string | EC50 (nM)
CCC/C=C/C=C/C(=O)O[C@H]1/C(=C/C(=O)OC)C[C@H]2C[C@H]([C@@H](C)O)OC(=O)C[C@H](O)C[C@@H]3C[C@H](OC(C)=O)C(C)(C)[C@](O)(C[C@@H]4C/C(=C/C(=O)OC)C[C@H](/C=C/C(C)(C)[C@]1(O)O2)O4)O3 | 523
C/C=C(/C)C(=O)O[C@H]1C(C)=C[C@]23C(=O)[C@@H](C=C(CO)[C@@H](O)[C@]12O)[C@H]1[C@@H](C[C@H]3C)C1(C)C | 1500

Could you tell me which EC50 is on file for `CC(=O)O[C@@]12C[C@@H](C)[C@@]3(O)[C@@H](C=C(CO)C[C@]4(O)C(=O)C(C)=C[C@@H]34)[C@@H]1C2(C)C` ?
5000

Origin of the recorded values: paper PMC9729583
